Tested on: NCI-H1703 cells
Assay: GLS Cell Proliferation Assay (NCI-H1703 cell proliferation)
Format: cell-based
Details: Homo sapiens, NCI-H1703, 120 h, NCI-H1703 cells, 5 days; read-out: Assay c) Prolif Mean IC50
Method: The following assays were used to measure the effects of the compounds described herein: a) GLS Enzyme Potency Assay; b) GLS Cell Potency Assay; c) GLS Cell Proliferation Assay. During the description of the assays, generally: • i. […] IC50 values were calculated using a smart fitting model in Genedata. […] The ability of compounds to inhibit cell growth was measured using a 384 well plate NCI-H1703 cell proliferation assay. […]
measurementKind: pIC50
Units for pIC50: none; it is -log10 of a concentration expressed in mol/L.

Worked cases, answers included:
>  <compound>
COc1cc(OC)cc([C@H](OC)C(=O)Nc2nnc(N[C@@H]3CCN(c4ccc(C)nn4)C3)s2)c1 (single isomer, unassigned) [Example 4(a)]

>  <experimentalSystem>
NCI-H1703 cells

>  <pIC50>
8.53

$$$$
>  <compound>
COc1cc(OC)cc([C@H](OC)C(=O)Nc2nnc(N[C@@H]3CCN(c4ccc(C)nn4)C3)s2)c1 (single isomer, unassigned) [4(b)]

>  <experimentalSystem>
NCI-H1703 cells

>  <pIC50>
7.56

$$$$

Ask: Can you look up the measured pIC50 of COC1CN(c2cccc([C@H](OC)C(=O)Nc3nnc(N[C@@H]4CCN(c5cccnn5)C4)s3)c2)C1 (single isomer, unassigned) [Example 3(a)] for me?
Reply: 8.58

---

Test system: NCI-H1703 cells
Test: GLS Cell Proliferation Assay (NCI-H1703 cell proliferation)
Format: cell-based
Conditions: Homo sapiens, NCI-H1703, 120 h, NCI-H1703 cells, 5 days; read-out: Assay c) Prolif Mean IC50
# pIC50 annotations
Units for pIC50: none; it is -log10 of a concentration expressed in mol/L.

Ask: Can you look up the measured pIC50 of CO[C@H](C(=O)Nc1nnc(N[C@@H]2CCN(c3cccnn3)C2)s1)c1cccc(C2COC2)c1 (single isomer, unassigned) for me?
Reply: 6.16

Ask: Can you look up the measured pIC50 of COC(C(=O)Nc1nnc(N[C@@H]2CCN(c3ccc(F)nn3)C2)s1)c1cccc(N2CC(F)(F)C2)c1 (stereo partly drawn) for me?
Reply: 7.09

Ask: Can you look up the measured pIC50 of CO[C@H](C(=O)Nc1nnc(N[C@@H]2CCN(c3cccnn3)C2)s1)c1cccc(N2CC(F)C2)c1 (single isomer, unassigned) [Example 1(b)] for me?
Reply: 6.88

Ask: Can you look up the measured pIC50 of COC[C@H](C(=O)Nc1nnc(N[C@@H]2CCN(c3ccc(C)nn3)C2)s1)c1ccccc1 (single isomer, unassigned) for me?
Reply: 8.04

Ask: Can you look up the measured pIC50 of CO[C@H](C(=O)Nc1nnc(N[C@@H]2CCN(c3cccnn3)C2)s1)c1ccc(F)c(N2CC(F)C2)c1 (single isomer, unassigned) for me?
Reply: 7.41

Ask: Can you look up the measured pIC50 of COC1CN(c2cccc([C@H](OC)C(=O)Nc3nnc(N[C@@H]4CCN(c5cccnn5)C4)s3)c2)C1 (single isomer, unassigned) [3(b)] for me?
Reply: 6.57
